tested on: RAW-Dual (murine macrophage reporter line); experiment: IRF reporter (Lucia luciferase) activity fold change vs agonist alone; higher = enhanced IRF activity; conditions: modulator concentration 10 µM; agonist: MPLA […]
REPORTED_METRIC: IRF reporter
Output spec: single numeric token, no unit.

Field: example entries. Status: answers known.
[
  {
    "COMPOUND": "CC(C)(C)C1(O)CC(C(F)(F)F)=NN1C(=O)c1ccc([N+](=O)[O-])cc1 (centres undefined)",
    "NUMERIC_RESULT": 1.66
  },
  {
    "COMPOUND": "CC(C)Sc1ccc(CC(=O)N2C3C=CCC2CC3)cc1 (centres undefined)",
    "NUMERIC_RESULT": 1.38
  },
  {
    "COMPOUND": "COc1cccc(CC(=O)N2CCC(Oc3ccc4ccccc4n3)C2)c1 (centres undefined)",
    "NUMERIC_RESULT": 1.24
  },
  {
    "COMPOUND": "Cc1cc(OCC(=O)Nc2ccccc2-c2ccccc2)ccc1Br",
    "NUMERIC_RESULT": 1.55
  },
  {
    "COMPOUND": "Cc1ccc(CSc2nc3sc4c(c3c(=O)n2-c2ccccc2)CC(C)(C)OC4)c(C)c1",
    "NUMERIC_RESULT": 1.1
  }
]

# value of IRF reporter, RAW-Dual (murine macrophage reporter line), item COc1ccc(C2=NN(C(=O)c3ccc(Br)cc3)C(c3nc4ccccc4[nH]3)C2)cc1 (centres undefined) = 1.1

# value of IRF reporter, RAW-Dual (murine macrophage reporter line), item O=S(=O)(NCc1ccc(-c2cccnc2)nc1)c1ccc(OC(F)(F)F)cc1 = 1.16

# value of IRF reporter, RAW-Dual (murine macrophage reporter line), item C1N2CN3CN1CN(C2)C3 = 0.949

# value of IRF reporter, RAW-Dual (murine macrophage reporter line), item O=c1n(CCNS(=O)(=O)Cc2ccccc2)nc(C2CC2)n1-c1ccccc1 = 1.22
